Target: 17β-hydroxysteroid dehydrogenase type 1 (17β-HSD type 1) (Homo sapiens)
Construct: expressed in transfected cells; host or cells: MCF-7
Sequence (P14061 whole entry): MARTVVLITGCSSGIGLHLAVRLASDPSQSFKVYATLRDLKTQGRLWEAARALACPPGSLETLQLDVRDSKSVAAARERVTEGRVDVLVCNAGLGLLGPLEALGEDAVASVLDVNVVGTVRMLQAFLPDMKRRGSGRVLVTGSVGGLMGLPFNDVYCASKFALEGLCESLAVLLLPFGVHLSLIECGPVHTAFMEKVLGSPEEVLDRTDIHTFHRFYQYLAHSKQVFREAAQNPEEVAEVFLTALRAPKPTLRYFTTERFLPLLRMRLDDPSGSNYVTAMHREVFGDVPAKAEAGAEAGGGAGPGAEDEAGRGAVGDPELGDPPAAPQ
Test: Inhibition of 17β-HSD type 1 in MCF-7 cells stably expressing the isoenzyme (tritium labeled estrone conversion, HPLC)
Format: cell-based
Conditions: MCF7; 10 μM test compound; MCF-7 cells expressing 17β-HSD type 1; 2 nM tritium labeled estrone; read-out: % Inhibition HSD1 10 μM
readout_label: inhibition at 10 µM

>>> endpoint_value("CCCCn1c(-c2cccs2)nc2sc3c(c2c1=O)CCCC3")
"28.6%"
>>> endpoint_value("O=C1CCCc2c1sc1nc(-c3ccccc3)n(Cc3ccccc3)c(=O)c21")
"47.3%"
>>> endpoint_value("COc1ccc(-c2nc3sc4c(c3c(=O)n2-c2ccccc2)CCCC4=O)cc1")
"45.3%"
>>> endpoint_value("CCC(C)Cn1c(-c2cc(OC)c(OC)c(OC)c2)nc2sc3c(c2c1=O)CCCC3=O (centres unmarked)")
"59.3%"
>>> endpoint_value("O=c1c2c3c(sc2nc(CO)n1-c1ccccc1)CCCC3")
"23.6%"
>>> endpoint_value("CCOC1=C(C=O)CCc2c1sc1nc(-c3cc(OC)c(OC)c(OC)c3)n(Cc3ccccc3)c(=O)c21")
"38.4%"
>>> endpoint_value("COc1cc(-c2nc3sc4c(c3c(=O)n2Cc2ccccc2)CCC(C=O)=C4Cl)cc(OC)c1OC")
"38.4%"
>>> endpoint_value("COc1cc(-c2nc3sc4c(c3c(=O)n2Cc2ccccc2)CCC(C=O)=C4Sc2ccccc2)cc(OC)c1OC")
"27.4%"
>>> endpoint_value("COc1cc(-c2nc3sc4c(c3c(=O)n2Cc2ccccc2)CCC(C=O)=C4Oc2ccccc2)cc(OC)c1OC")
"30.7%"
>>> endpoint_value("CC(=O)OCc1nc2sc3c(c2c(=O)n1Cc1ccccc1)CCCC3=O")
"39.7%"
>>> endpoint_value("CCCc1nc2sc3c(c2c(=O)n1Cc1cc(Br)ccc1OC)CCC(Br)(Br)C3=O")
"29.4%"

----------
Listing: inhibition at 10 µM of selected molecules
Molecular target: 17β-hydroxysteroid dehydrogenase type 3 (17β-HSD type 3) (Homo sapiens, UniProt P37058)
Construct: expressed in transfected cells; host or cells: MCF-7
Sequence (P37058 1-310): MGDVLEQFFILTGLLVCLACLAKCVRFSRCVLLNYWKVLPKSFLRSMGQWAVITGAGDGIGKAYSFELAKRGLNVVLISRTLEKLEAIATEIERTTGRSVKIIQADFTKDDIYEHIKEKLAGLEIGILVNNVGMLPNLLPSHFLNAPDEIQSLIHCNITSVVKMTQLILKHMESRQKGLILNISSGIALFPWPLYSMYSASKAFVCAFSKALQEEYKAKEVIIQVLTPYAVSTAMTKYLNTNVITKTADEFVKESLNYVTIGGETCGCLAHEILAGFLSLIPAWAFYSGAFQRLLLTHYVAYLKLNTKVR
Assay: Inhibition of 17β-HSD type 3 in MCF-7 cells stably expressing the isoenzyme (tritium labeled androstenedione conversion, HPLC)
Format: cell-based
Conditions: MCF7; 10 μM test compound; MCF-7 cells expressing 17β-HSD type 3; 2 nM tritium labeled androstenedione; read-out: % Inhibition HSD3 10 μM
readout_label: inhibition at 10 µM (%)

>>> endpoint_value("CCCCn1c(-c2cc(OC)c(OC)c(OC)c2)nc2sc3c(c2c1=O)CC(C)CC3 (stereo not drawn)")
11.9
>>> endpoint_value("COc1cc(-c2nc3sc4c(Oc5ccccc5)c(C=O)ccc4c3c(=O)n2Cc2ccccc2)cc(OC)c1OC")
9.1
>>> endpoint_value("COc1cc(-c2nc3sc4c(c3c(=O)n2Cc2ccccc2)CC(C)CC4=O)cc(OC)c1OC (stereo not drawn)")
22.3
>>> endpoint_value("COc1cc(-c2nc3sc4c(Cl)c(C=O)ccc4c3c(=O)n2Cc2ccccc2)c(Cl)c(OC)c1OC")
22
>>> endpoint_value("O=c1c2c3c(sc2nc(CO)n1Cc1ccccc1)CCCC3")
16.7
>>> endpoint_value("O=C(OCCn1c(-c2cccs2)nc2sc3c(c2c1=O)CCCC3)c1cccs1")
3.9

----------
Target: 17β-hydroxysteroid dehydrogenase type 3 (17β-HSD type 3) (Homo sapiens, UniProt P37058)
Construct: expressed in transfected cells; host or cells: MCF-7
Experiment: Inhibition of 17β-HSD type 3 in MCF-7 cells stably expressing the isoenzyme (tritium labeled androstenedione conversion, HPLC)
Assay type: cell-based
Conditions: MCF7; 1 μM test compound; MCF-7 cells expressing 17β-HSD type 3; 2 nM tritium labeled androstenedione; read-out: % Inhibition HSD3 1 μM
readout_label: inhibition at 1 µM (%)

>>> endpoint_value("CCC(C)Cn1c(-c2cc(OC)c(OC)c(OC)c2Cl)nc2sc3c(c2c1=O)CCC(Cl)(Cl)C3=O (centres unmarked)")
8
>>> endpoint_value("COc1cc(-c2nc3sc4c(c3c(=O)n2Cc2ccccc2)CCCC4=O)cc(OC)c1OC")
11.7
>>> endpoint_value("COCCn1c(-c2cccs2)nc2sc3c(c2c1=O)CCCC3=O")
5
>>> endpoint_value("CCC(C)Cn1c(-c2cc(OC)c(OC)c(OC)c2)nc2sc3c(c2c1=O)CCC(Br)C3=O (centres unmarked)")
4.8
>>> endpoint_value("COc1cc(-c2nc3sc4c(c3c(=O)n2Cc2ccco2)CCCC4)cc(OC)c1OC")
2.3

----------
Biological target: 17β-hydroxysteroid dehydrogenase type 2 (17β-HSD type 2) (Homo sapiens, UniProt P37059)
Construct: expressed in transfected cells; host or cells: MCF-7
Sequence (P37059 whole entry): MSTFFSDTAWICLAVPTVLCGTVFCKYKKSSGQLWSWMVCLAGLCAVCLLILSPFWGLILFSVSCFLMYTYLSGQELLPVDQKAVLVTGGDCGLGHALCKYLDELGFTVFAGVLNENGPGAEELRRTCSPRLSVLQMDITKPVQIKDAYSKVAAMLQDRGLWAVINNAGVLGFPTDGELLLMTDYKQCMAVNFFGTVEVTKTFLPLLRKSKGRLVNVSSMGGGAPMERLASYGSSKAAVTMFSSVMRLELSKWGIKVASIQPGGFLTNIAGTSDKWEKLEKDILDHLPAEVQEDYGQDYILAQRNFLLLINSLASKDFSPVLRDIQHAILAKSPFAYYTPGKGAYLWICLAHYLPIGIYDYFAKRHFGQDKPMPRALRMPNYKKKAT
Assay: Inhibition of 17β-HSD type 2 in MCF-7 cells stably expressing the isoenzyme (tritium labeled estradiol conversion, HPLC)
Type: cell-based
Conditions: MCF7; 10 μM test compound; MCF-7 cells expressing 17β-HSD type 2; 2 nM tritium labeled estradiol; read-out: % Inhibition HSD2 10 μM
readout_label: inhibition at 10 µM (%)

>>> endpoint_value("O=C1c2sc3nc(-c4cccs4)n(Cc4ccccc4)c(=O)c3c2CCC1Br (stereo not shown)")
48.4
>>> endpoint_value("CCCc1nc2sc3c(c2c(=O)n1Cc1ccc(Br)o1)CCC(Br)(Br)C3=O")
47.9
>>> endpoint_value("CCCCn1c(-c2cc(OC)c(OC)c(OC)c2)nc2sc3c(c2c1=O)CCCC3")
25.4
>>> endpoint_value("CCCc1nc2sc3c(c2c(=O)n1Cc1ccc(Br)o1)CCC(Br)C3=O (stereo not shown)")
49.7
>>> endpoint_value("CCCc1nc2sc3c(c2c(=O)n1Cc1cc(Br)ccc1OC)CCC(Br)(Br)C3=O")
44.6
>>> endpoint_value("O=C1c2sc3nc(-c4ccccc4)n(Cc4ccccc4)c(=O)c3c2CCC1(Br)Br")
40
>>> endpoint_value("COc1cc(-c2nc3sc4c(c3c(=O)n2CC2CCCO2)CCCC4=O)cc(OC)c1OC (stereo not shown)")
40.1
>>> endpoint_value("COc1cc(-c2nc3sc4c(O)cccc4c3c(=O)n2CC2CCCO2)c(Br)c(OC)c1OC (stereo not shown)")
24.3
>>> endpoint_value("CCC(C)Cn1c(-c2cc(OC)c(OC)c(OC)c2Cl)nc2sc3c(c2c1=O)CCC(Cl)C3=O (stereo not shown)")
1.1
>>> endpoint_value("Cc1nc2sc3c(c2c(=O)n1-c1ccccc1)CCCC3")
9.7
>>> endpoint_value("CCCc1nc2sc3c(c2c(=O)n1Cc1ccccc1OC)CCCC3")
31.5
>>> endpoint_value("CCCCn1c(-c2cc(OC)c(OC)c(OC)c2)nc2sc3c(c2c1=O)CCC(Br)(Br)C3=O")
29.9
>>> endpoint_value("CCCCn1c(-c2cc(OC)c(OC)c(O)c2Br)nc2sc3c(O)c(Br)c(C)cc3c2c1=O")
19.6
>>> endpoint_value("COc1cc(-c2nc3sc4c(c3c(=O)n2CC2CCCO2)CCC(Br)C4=O)c(Br)c(OC)c1OC (stereo not shown)")
16.9
>>> endpoint_value("O=C1CCCc2c1sc1nc(-c3cccs3)n(Cc3ccccc3)c(=O)c21")
26.4
>>> endpoint_value("O=c1c2c(nc(-c3cccs3)n1CCO)sc1c(O)c(Br)ccc12")
29.9
>>> endpoint_value("COC(=O)c1nc2sc3c(c2c(=O)n1Cc1ccccc1)CCCC3=O")
19.5
>>> endpoint_value("COc1cc(-c2nc3sc4c(O)cc(C)cc4c3c(=O)n2Cc2ccccc2)c(Br)c(OC)c1OC")
23.5
>>> endpoint_value("COc1cc(-c2nc3sc4c(c3c(=O)n2Cc2ccco2)CCCC4)cc(OC)c1OC")
30.1
